Origin of values: ChEMBL document CHEMBL3856290

Can you tell me IC50 for the items I'm about to list?
biological target: Renin (Homo sapiens, UniProt P00797); assay: Inhibition of renin in human plasma by radioimmunoassay; format: cell-free
Sequence (P00797 whole entry): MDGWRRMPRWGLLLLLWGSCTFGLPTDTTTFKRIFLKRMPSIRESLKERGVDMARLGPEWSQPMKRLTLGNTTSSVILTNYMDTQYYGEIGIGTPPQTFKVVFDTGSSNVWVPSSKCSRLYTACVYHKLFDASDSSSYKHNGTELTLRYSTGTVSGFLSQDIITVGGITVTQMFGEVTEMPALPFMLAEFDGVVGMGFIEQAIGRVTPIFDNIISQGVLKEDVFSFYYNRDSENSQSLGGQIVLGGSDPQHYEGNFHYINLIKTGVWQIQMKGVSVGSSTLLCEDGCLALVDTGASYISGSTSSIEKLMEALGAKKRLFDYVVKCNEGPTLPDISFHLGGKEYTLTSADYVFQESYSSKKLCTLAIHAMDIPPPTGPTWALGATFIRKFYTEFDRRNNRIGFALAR
Answers are plain numbers, in nM.

Consider the worked cases shown below.
COCCCNc1nc(C(C)(C)C)ncc1C(=O)N(CC(C)C)[C@@H]1CNC[C@H](C(N)=O)C1 = 4.5
COC(=O)[C@H]1CNC[C@@H](N(CC(C)C)C(=O)c2cnc(C(C)(C)C)nc2NCc2ccco2)C1 (racemic) = 1.4

Would you kindly look at the next entry?
May I ask what IC50 has been recorded for `COCCCNc1nc(C(C)(C)C)ncc1C(=O)N(CC(C)C)[C@@H]1CNC[C@H](C(=O)OC)C1` ?
5.2
